Below: a set of entries, each annotated with reported log10 IC50.
Measurement target: PCSK9 secreted by HepG2 cells (Homo sapiens (Human))
Protocol: Effect on the concentration of PCSK9 secreted by HepG2 cells (ELISA)
Measurement context: 48 hours incubation, read-out: Inhibitory activity on PCSK9, IC50
Measure name: log10 IC50 (log10 of the value in µM)

- Smiles record: "O=C1c2c(cccc2C(F)(F)F)CN1c1ccc(N[C@H]2CC[C@H](Nc3ncc(C(F)(F)F)nn3)C2)nc1"
  Measurement target: "PCSK9 secreted by HepG2 cells (Homo sapiens (Human))"
  Val: 0.62
- Smiles record: "O=c1ccccn1-c1ccc(N[C@H]2CC[C@H](Nc3ncc4cccn4n3)C2)nc1"
  Measurement target: "PCSK9 secreted by HepG2 cells (Homo sapiens (Human))"
  Val: 1.15
- Smiles record: "O=C1c2ccncc2CN1c1ccc(N[C@H]2CC[C@H](Nc3ncc(OC(F)F)cn3)C2)nc1"
  Measurement target: "PCSK9 secreted by HepG2 cells (Homo sapiens (Human))"
  Val: 1.08
- Smiles record: "O=C1c2ncc(F)cc2CN1c1ccc(N[C@H]2CC[C@H](Nc3ncc(OC(F)F)cn3)C2)nc1"
  Measurement target: "PCSK9 secreted by HepG2 cells (Homo sapiens (Human))"
  Val: 0.98
- Smiles record: "O=c1ccccn1-c1ccc(N[C@H]2CC[C@H](Nc3ncc(C4CC4)nn3)C2)nc1"
  Measurement target: "PCSK9 secreted by HepG2 cells (Homo sapiens (Human))"
  Val: 1.02
- Smiles record: "O=C1c2cccc(C(F)(F)F)c2CN1c1ccc(N[C@H]2CC[C@H](Nc3nc4cc(F)ccn4n3)C2)nc1"
  Measurement target: "PCSK9 secreted by HepG2 cells (Homo sapiens (Human))"
  Val: 1.36
- Smiles record: "Cc1cc2c(cn1)CN(c1ccc(N[C@H]3CC[C@H](Nc4ncc(OC(F)F)cn4)C3)nc1)C2=O"
  Measurement target: "PCSK9 secreted by HepG2 cells (Homo sapiens (Human))"
  Val: 0.41
- Smiles record: "Cc1cc2c(cn1)CN(c1ccc(N[C@H]3CC[C@H](Nc4nc5cc(F)ccn5n4)C3)nc1)C2=O"
  Measurement target: "PCSK9 secreted by HepG2 cells (Homo sapiens (Human))"
  Val: 1.38
- Smiles record: "FC(F)Oc1cnc(N[C@H]2CC[C@H](Nc3ccc(-c4cccn5ccnc45)cn3)C2)nc1"
  Measurement target: "PCSK9 secreted by HepG2 cells (Homo sapiens (Human))"
  Val: 1.38
- Smiles record: "O=C1c2cc(F)cnc2CN1c1ccc(N[C@H]2CC[C@H](Nc3ncc(OC(F)F)cn3)C2)nc1"
  Measurement target: "PCSK9 secreted by HepG2 cells (Homo sapiens (Human))"
  Val: 0.87
- Smiles record: "O=C1c2nc(C3CC3)ccc2CN1c1ccc(N[C@H]2CC[C@H](Nc3ncc(OC(F)F)cn3)C2)nc1"
  Measurement target: "PCSK9 secreted by HepG2 cells (Homo sapiens (Human))"
  Val: 0.26
- Smiles record: "O=C1c2cccnc2CN1c1ccc(N[C@H]2CC[C@H](Nc3ncc(C(F)(F)F)cn3)C2)nc1"
  Measurement target: "PCSK9 secreted by HepG2 cells (Homo sapiens (Human))"
  Val: 0.04

###

Each entry below carries its reported pIC50.
Measurement target: PCSK9 secreted by HepG2 cells (Homo sapiens (Human), UniProt Q8NBP7)
Sequence (Q8NBP7 153-692): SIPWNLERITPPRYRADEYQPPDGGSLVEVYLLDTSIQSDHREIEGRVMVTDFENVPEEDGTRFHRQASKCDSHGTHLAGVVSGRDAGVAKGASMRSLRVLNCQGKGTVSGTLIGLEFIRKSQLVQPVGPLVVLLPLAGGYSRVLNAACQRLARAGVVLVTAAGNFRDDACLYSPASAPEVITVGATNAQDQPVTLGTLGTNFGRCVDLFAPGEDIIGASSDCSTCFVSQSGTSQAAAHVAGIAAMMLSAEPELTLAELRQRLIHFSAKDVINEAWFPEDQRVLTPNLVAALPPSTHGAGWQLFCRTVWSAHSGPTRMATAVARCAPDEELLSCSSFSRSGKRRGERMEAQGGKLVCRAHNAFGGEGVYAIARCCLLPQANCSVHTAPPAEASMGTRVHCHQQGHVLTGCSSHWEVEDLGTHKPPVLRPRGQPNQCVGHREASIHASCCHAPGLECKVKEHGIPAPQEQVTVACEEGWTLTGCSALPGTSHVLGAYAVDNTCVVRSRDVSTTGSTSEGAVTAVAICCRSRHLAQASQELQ
Sequence (Q8NBP7 31-152 partner): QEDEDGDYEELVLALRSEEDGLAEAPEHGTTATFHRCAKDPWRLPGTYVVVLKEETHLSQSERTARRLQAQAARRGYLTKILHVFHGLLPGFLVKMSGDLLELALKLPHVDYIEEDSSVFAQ
Protocol: Effect on the concentration of PCSK9 secreted by HepG2 cells (ELISA)
Measurement context: 48 hours incubation, read-out: Inhibitory activity on PCSK9, IC50
pIC50: −log10 of the molar value.
Measure name: pIC50

- Smiles record: "O=C1c2cnccc2CN1c1ccc(N[C@H]2CC[C@H](Nc3ncc(OC(F)F)cn3)C2)nc1"
  Val: 5.05
- Smiles record: "O=C1c2ncccc2CN1c1ccc(N[C@H]2CC[C@H](Nc3ncc(OC(F)(F)F)cn3)C2)nc1"
  Val: 5.62
- Smiles record: "O=C1c2cccc(C(F)(F)F)c2CN1c1ccc(N[C@H]2CC[C@H](Nc3ncc(C(F)(F)F)nn3)C2)nc1"
  Val: 5.72
- Smiles record: "O=S1(=O)c2ncccc2CN1c1ccc(N[C@H]2CC[C@H](Nc3ncc(OC(F)F)cn3)C2)nc1"
  Val: 4.56
- Smiles record: "O=c1ccccn1-c1ccc(N[C@H]2CC[C@H](Nc3nc4cc(C5CC5)ccn4n3)C2)nc1"
  Val: 4.65
- Smiles record: "Cc1ccn2nc(N[C@H]3CC[C@H](Nc4ccc(N5Cc6cccnc6C5=O)cn4)C3)nc2c1"
  Val: 5.00
- Smiles record: "O=C1c2cccnc2CN1c1ccc(N[C@H]2CC[C@H](Nc3ncc(OCC(F)(F)F)cn3)C2)nc1"
  Val: 4.77
- Smiles record: "O=C1c2nc(C(F)(F)F)ccc2CN1c1ccc(N[C@H]2CC[C@H](Nc3nc4cc(F)ccn4n3)C2)nc1"
  Val: 4.70
- Smiles record: "O=c1ccccn1-c1ccc(N[C@H]2CC[C@H](Nc3nc4cc(C(F)(F)F)ccn4n3)C2)nc1"
  Val: 4.85
- Smiles record: "O=C1c2ncccc2CN1c1ccc(N[C@H]2CC[C@H](Nc3ncc(C(F)(F)F)cn3)C2)nc1"
  Val: 5.66
- Smiles record: "O=c1c(-c2ccc(N[C@H]3CC[C@H](Nc4ncc(OC(F)F)cn4)C3)nc2)cnc2ccccn12"
  Val: 5.42
- Smiles record: "Cc1cc2c(cn1)CN(c1ccc(N[C@H]3CC[C@H](Nc4ncc(C(F)(F)F)nn4)C3)nc1)C2=O"
  Val: 5.03
- Smiles record: "O=S1(=O)CCCCN1c1ccc(N[C@H]2CC[C@H](Nc3ncc(OC(F)F)cn3)C2)nc1"
  Val: 4.79
- Smiles record: "Cc1cc2c(cn1)CN(c1ccc(N[C@H]3CC[C@H](Nc4ncc(C5CC5)nn4)C3)nc1)C2=O"
  Val: 5.21
- Smiles record: "Cc1nccc2c1CN(c1ccc(N[C@H]3CC[C@H](Nc4ncc(OC(F)F)cn4)C3)nc1)C2=O"
  Val: 5.42
- Smiles record: "Cc1nc(N[C@H]2CC[C@H](Nc3ccc(N4Cc5cccnc5C4=O)cn3)C2)nc2ccccc12"
  Val: 5.70
- Smiles record: "O=c1n(-c2ccc(N[C@H]3CC[C@H](Nc4ncc(OC(F)F)cn4)C3)nc2)c2nccnc2n1C1CC1"
  Val: 4.94
- Smiles record: "O=C1c2ncccc2CN1c1ccc(N[C@H]2CC[C@H](Nc3ncc(OC(F)F)cn3)C2)nc1"
  Val: 4.66
- Smiles record: "O=C1c2cc(C(F)(F)F)ncc2CN1c1ccc(N[C@H]2CC[C@H](Nc3nc4cc(F)ccn4n3)C2)nc1"
  Val: 5.89
- Smiles record: "O=c1ccccn1-c1ccc(N[C@H]2CC[C@H](Nc3nsc(C4CC4)n3)C2)nc1"
  Val: 4.85
- Smiles record: "Fc1cnn2c(-c3ccc(N[C@H]4CC[C@H](Nc5ncc(OC(F)F)cn5)C4)nc3)cccc12"
  Val: 5.20
- Smiles record: "O=C1c2cccnc2CN1c1ccc(N[C@H]2CC[C@H](Nc3ncc(C(F)(F)F)nn3)C2)nc1"
  Val: 4.61
- Smiles record: "O=C1c2ncccc2CN1c1ccc(N[C@H]2CC[C@H](Nc3ncc(OCC(F)(F)F)cn3)C2)nc1"
  Val: 4.76
- Smiles record: "Cc1nccc2c1CN(c1ccc(N[C@H]3CC[C@H](Nc4nc5cc(F)ccn5n4)C3)nc1)C2=O"
  Val: 4.81
- Smiles record: "O=C1c2c(cccc2C(F)(F)F)CN1c1ccc(N[C@H]2CC[C@H](Nc3nc4cc(F)ccn4n3)C2)nc1"
  Val: 4.75
- Smiles record: "Cc1cnn2c(-c3ccc(N[C@H]4CC[C@H](Nc5ncc(OC(F)F)cn5)C4)nc3)cccc12"
  Val: 5.44
- Smiles record: "O=C1c2cc(C(F)(F)F)ncc2CN1c1ccc(N[C@H]2CC[C@H](Nc3ncc(OC(F)F)cn3)C2)nc1"
  Val: 6.30
- Smiles record: "O=C1c2ncccc2CN1c1ccc(N[C@H]2CC[C@H](Nc3ncc(C4CC4)cn3)C2)nc1"
  Val: 4.93
- Smiles record: "O=C1c2nc(C(F)(F)F)ccc2CN1c1ccc(N[C@H]2CC[C@H](Nc3ncc(C4CC4)nn3)C2)nc1"
  Val: 5.23
- Smiles record: "N#Cc1cnn2c(-c3ccc(N[C@H]4CC[C@H](Nc5ncc(OC(F)F)cn5)C4)nc3)ccnc12"
  Val: 6.30
